tested on: THRa homodimer (NR concentration 90 nM); test: PBM binding z-score (relative to random genomic background probes); higher = stronger binding; sequences stand for … in GC…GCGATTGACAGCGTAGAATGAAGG
Label true when PBM binding z-score is at or above 0.1; otherwise label false.

Use the examples below as a reference point.
# construct sequence, label class
rows = [
    ("ACTAGCAGGCCAAGGGTCACTCAGGATTAGTCCG", "false"),
    ("ATATGTAGATTACATCCGGGTCATTCAGGCTATG", "true"),
    ("AGAACGAGGGCACGCTGAGATGATAGCAGAGTAG", "false"),
]

Does PBM binding z-score meet or surpass 0.1 for "GCTTGTAGATCAAAGTTAAGAAAGACTAAGCTAA" ?
false

Does PBM binding z-score meet or surpass 0.1 for "ACAGACAGGTGAGTGAAGTTAACTCAGCTGGACG" ?
false

Does PBM binding z-score meet or surpass 0.1 for "TCGAGTAGGTTCGGGGCATTCAGAATGGCGTCGA" ?
false

Does PBM binding z-score meet or surpass 0.1 for "GCGACTGGGCCATCAGCAGGTTACCATAACTTAA" ?
false

Does PBM binding z-score meet or surpass 0.1 for "AGAATGAGGTTATACGTACATCAGGGAAGAAAGT" ?
true

Does PBM binding z-score meet or surpass 0.1 for "TCTCGGAGGACACGAAGGTCAGAGCTTTCCAGAG" ?
true

Does PBM binding z-score meet or surpass 0.1 for "TTAGCAAGGTGAAAGGTCGTTGATGCACGCCTTG" ?
true

Does PBM binding z-score meet or surpass 0.1 for "TTACCAAGGTGAGCTGGGGTCGTTGATCCAACTC" ?
true

Does PBM binding z-score meet or surpass 0.1 for "GCGACTGGGGCAACGCAGGTTACCATAAGGTTGG" ?
true
